MIC values for the molecules below.
system: Klebsiella pneumoniae; test: Antibacterial activity against carbapenem-resistant Klebsiella pneumoniae ATCC BAA-2470 incubated for 24 hrs by microtiter plate method; format: functional
Bridge positions count the residues as written; N and C are the ends. Square brackets hold non-standard residues; d marks the D form. Peptide text beside a SMILES is read from it. * marks the point of attachment. 2Nal = N[C@@H](Cc1ccc2ccccc2c1)C(=O)O; X1 = CC[C@H](C)CCCCC(=O)*; Dab = NCC[C@H](N)C(=O)O
Numeric only. Scale: µg/mL

INPUT: Record request: MIC value, item N=C(N)NCCC[C@@H]1NC(=O)[C@H](CCCNC(=N)N)NC(=O)[C@H](CCCNC(=N)N)NC(=O)[C@H](Cc2ccc3ccccc3c2)NC(=O)[C@H](Cc2ccc3ccccc3c2)NC(=O)[C@H](Cc2ccc3ccccc3c2)NC(=O)[C@H](CCCNC(=N)N)NC1=O (cyclo(RRRR[2Nal][2Nal][2Nal]))
OUTPUT: 12.5

INPUT: Record request: MIC value, item CC[C@H](C)CCCCC(=O)N[C@@H](CCN)C(=O)N[C@H](C(=O)N[C@@H](CCN)C(=O)N[C@H]1CCNC(=O)[C@H]([C@@H](C)O)NC(=O)[C@H](CCN)NC(=O)[C@H](CCN)NC(=O)[C@H](CC(C)C)NC(=O)[C@@H](Cc2ccccc2)NC(=O)[C@H](CCN)NC1=O)[C@@H](C)O (X1-[Dab]T[Dab][Dab][Dab][dF]L[Dab][Dab]T; lactam 4-C)
OUTPUT: 1.5

###

test system: Staphylococcus aureus; test: Antibacterial activity against Staphylococcus aureus ATCC 29213 incubated for 24 hrs by microtiter plate method; assay type: functional; details: Staphylococcus aureus, ATCC 29213, read-out: MIC
Square brackets hold non-standard residues; d marks the D form. Peptide text beside a SMILES is read from it. Dip = N[C@H](C(=O)O)C(c1ccccc1)c1ccccc1; 2Nal = N[C@@H](Cc1ccc2ccccc2c1)C(=O)O
EXPERIMENTAL_ENDPOINT: MIC (µg/mL)
Numeric only. Scale: µg/mL

INPUT: Record request: MIC value, item N=C(N)NCCC[C@H](NC(=O)[C@H](CCCNC(=N)N)NC(=O)[C@@H](N)CCCNC(=N)N)C(=O)N[C@@H](Cc1ccc2ccccc2c1)C(=O)N[C@@H](Cc1ccc2ccccc2c1)C(=O)N[C@@H](Cc1ccc2ccccc2c1)C(=O)O (H-RRR[2Nal][2Nal][2Nal]-OH)
OUTPUT: 6.2

Consider now this further molecule.
INPUT: Record request: MIC value, item N=C(N)NCCC[C@@H]1NC(=O)[C@H](CCCNC(=N)N)NC(=O)[C@H](C(c2ccccc2)c2ccccc2)NC(=O)[C@H](C(c2ccccc2)c2ccccc2)NC(=O)[C@H](C(c2ccccc2)c2ccccc2)NC(=O)[C@H](CCCNC(=N)N)NC1=O (cyclo([Dip][Dip][Dip]RRR))
OUTPUT: 3.1

###

MIC values for the compounds below.
tested on: Escherichia coli; assay: Antibacterial activity against Escherichia coli ATCC 25922 incubated for 24 hrs by microtiter plate method; format: functional; conditions: Escherichia coli, ATCC 25922, 24 h, read-out: MIC
Square brackets hold non-standard residues; d marks the D form. Peptide text beside a SMILES is read from it. Dip = N[C@H](C(=O)O)C(c1ccccc1)c1ccccc1; 2Nal = N[C@@H](Cc1ccc2ccccc2c1)C(=O)O
Numeric only. Scale: µg/mL

Sample records with MIC:
INPUT: Record request: MIC value, item NCCCC[C@@H]1NC(=O)[C@H](CCCCN)NC(=O)[C@H](CCCCN)NC(=O)[C@H](C(c2ccccc2)c2ccccc2)NC(=O)[C@H](C(c2ccccc2)c2ccccc2)NC(=O)[C@H](C(c2ccccc2)c2ccccc2)NC(=O)[C@H](CCCCN)NC(=O)[C@H](CCCCN)NC1=O (cyclo([Dip][Dip][Dip]KKKKK))
OUTPUT: 50

INPUT: Record request: MIC value, item N=C(N)NCCC[C@H](NC(=O)[C@H](CCCNC(=N)N)NC(=O)[C@H](Cc1ccc2ccccc2c1)NC(=O)[C@H](Cc1ccc2ccccc2c1)NC(=O)[C@H](CCCNC(=N)N)NC(=O)[C@@H](N)CCCNC(=N)N)C(=O)N[C@@H](Cc1ccc2ccccc2c1)C(=O)O (H-RR[2Nal][2Nal]RR[2Nal]-OH)
OUTPUT: 25

INPUT: Record request: MIC value, item N=C(N)NCCC[C@@H]1NC(=O)[C@H](CCCNC(=N)N)NC(=O)[C@H](Cc2ccc3ccccc3c2)NC(=O)[C@H](Cc2ccc3ccccc3c2)NC(=O)[C@H](CCCNC(=N)N)NC(=O)[C@H](CCCNC(=N)N)NC(=O)[C@H](Cc2ccc3ccccc3c2)NC1=O (stereo in doubt; 18C)
OUTPUT: 25

Consider now this further compound.
INPUT: Record request: MIC value, item N=C(N)NCCC[C@H](NC(=O)[C@H](CCCNC(=N)N)NC(=O)[C@H](CCCNC(=N)N)NC(=O)[C@@H](N)CCCNC(=N)N)C(=O)N[C@@H](CCCNC(=N)N)C(=O)N[C@H](C(=O)N[C@H](C(=O)N[C@H](C(=O)O)C(c1ccccc1)c1ccccc1)C(c1ccccc1)c1ccccc1)C(c1ccccc1)c1ccccc1 (H-RRRRR[Dip][Dip][Dip]-OH)
OUTPUT: 25
